biological target: UniProt P43405
readout_kind: IC50 (µM)

INSERT INTO assay_data (compound, number) VALUES
  ('Cc1coc2c1C(=O)C(=O)c1c-2ccc2c(C)cccc12 [compound 13, Tanshinone I]', 1.64);
